Reference source: patent US20260159500A1

# system-name: Human KIF18A (amino acid sequence 1-417) (Homo sapiens)
# assay-explanation: Enzymatic activity test (ADP-Glo, microtubule-stimulated KIF18A ATPase)
# condition-parameters: 60 μg/mL microtubules, 25 μM ATP, 2.5 nM KIF18A protein, 120 min at ambient temperature, read-out: KIF18A_nM
As shown below, each of these compounds has a reported log10 of IC50 value.
Recall that a logarithmic scale is used here: each number is log10 of IC50 in nM.

Solved entries:
Cn1cnc2c(N3CCC(F)(F)CC3)nc(NC(=O)c3ccc(NS(=O)(=O)CCO)cc3N3CCC4(CC3)CC4)cc21 [Example 35] : 1.46
O=C(Nc1ccc(NS(=O)(=O)CCO)cc1N1CCC2(CC1)CC2)c1cc(N2CCC(F)(F)CC2)c2ncccc2c1 [Example 100] : 1.38
O=C(Nc1cc(N2CCC(F)(F)CC2)c2nc(C(F)(F)F)ccc2c1)c1ccc(NS(=O)(=O)CCO)cc1N1CCC2(CC1)CC2 [Example 69] : 3.01
[2H]c1c(NC(=O)c2ccc(NS(=O)(=O)CCO)cc2N2CCC3(CC2)CC3)cc2cccnc2c1N1CCC(F)(F)CC1 [Example 70] : 1.63
O=C(Nc1cc(N2CCC(F)(F)CC2)c2ncccc2c1)c1ccc(NS(=O)(=O)CCO)cc1N1CCC2(CC1)CC2 [Example 63] : 1.54
O=C(Nc1nc(N2CCC(F)(F)CC2)c2occc2c1Cl)c1ccc(NS(=O)(=O)CCO)cc1N1CCC2(CC1)CC2 [Example 33] : 3.21
O=C(Nc1cc2cccnc2c(N2CCC(F)(F)CC2)c1F)c1ccc(NS(=O)(=O)CCO)cc1N1CCC2(CC1)CC2 [Example 71] : 2.11
CN1CCN(c2nc(NC(=O)c3ccc(NS(=O)(=O)CCO)cc3N3CCC4(CC3)CC4)cc3cccnc23)CC1 [Example 48] : 2.03
O=C(Nc1cc2occc2c(N2CCC(F)(F)CC2)n1)c1ccc(NS(=O)(=O)CCO)cc1N1CCC2(CC1)CC2 [Example 31] : 1.85
O=C(Nc1cc(N2CCC(F)(F)CC2)c2nsnc2c1)c1ccc(NS(=O)(=O)CCO)cc1N1CCC2(CC1)CC2 [Example 40] : 1.51

Measured log10 of IC50, CC(C)(C)OC(=O)N1Cc2nc(NC(=O)c3ccc(NS(=O)(=O)CCO)cc3N3CCC4(CC3)CC4)nc(N3CCC(F)(F)CC3)c2C1 [Example 6] : 2.38

###

# system-name: Human KIF18A (amino acid sequence 1-417) (Homo sapiens)
# Sequence (Q8NI77 1-417): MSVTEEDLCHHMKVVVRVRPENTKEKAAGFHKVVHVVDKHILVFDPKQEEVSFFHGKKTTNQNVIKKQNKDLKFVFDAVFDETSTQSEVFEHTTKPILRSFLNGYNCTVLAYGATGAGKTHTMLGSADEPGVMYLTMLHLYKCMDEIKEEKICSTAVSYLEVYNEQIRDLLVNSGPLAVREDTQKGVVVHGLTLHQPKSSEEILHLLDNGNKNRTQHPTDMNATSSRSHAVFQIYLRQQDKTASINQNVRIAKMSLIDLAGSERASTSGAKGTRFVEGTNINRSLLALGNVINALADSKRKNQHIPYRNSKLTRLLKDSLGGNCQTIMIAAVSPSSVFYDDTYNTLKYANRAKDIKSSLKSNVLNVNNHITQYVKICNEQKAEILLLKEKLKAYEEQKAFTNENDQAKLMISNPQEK
# assay-explanation: Enzymatic activity test (ADP-Glo, microtubule-stimulated KIF18A ATPase)
# condition-parameters: 60 μg/mL microtubules, 25 μM ATP, 2.5 nM KIF18A protein, 120 min at ambient temperature, read-out: KIF18A_nM
quantity-name: IC50 (nM)
Quick reminder: number only, in nM, skip the unit.

O=C(Nc1cc2cncnc2c(N2CCC(F)(F)CC2)n1)c1ccc(NS(=O)(=O)CCO)cc1N1CCC2(CC1)CC2 : 32
C[C@@H](CO)S(=O)(=O)Nc1ccc(C(=O)Nc2cc3sc(N)nc3c(N3CCC(F)(F)CC3)c2F)c(N2CCC3(CC2)CC3)c1 : 242
O=C(Nc1nc(N2CCC(F)(F)CC2)c2occc2n1)c1ccc(NS(=O)(=O)CCO)cc1N1CCC2(CC1)CC2 : 8

Measured IC50, COc1ccc2cc(NC(=O)c3ccc(NS(=O)(=O)CCO)cc3N3CCC4(CC3)CC4)cc(N3CCC(F)(F)CC3)c2n1 : 232

Measured IC50, Cc1ccc2cc(NC(=O)c3ccc(NS(=O)(=O)CCO)cc3N3CCC4(CC3)CC4)cc(N3CCC(F)(F)CC3)c2n1 : 116
